For each of the compounds below, state its M6G Assay, Anhydrous basis.
measurement protocol: Stability indicating HPLC assay and related substances on storage (Example 3)
Type: physicochemical
reported conditions: 1 month, 25° C./60% RH
Report as a plain number; the unit % w/w is understood.

[ask] For the compound Br.CN1CC[C@]23c4c5ccc(O)c4O[C@H]2[C@@H](O[C@@H]2O[C@H](C(=O)O)[C@@H](O)[C@H](O)[C@H]2O)C=C[C@H]3[C@H]1C5 [Morphine-6-glucuronide hydrobromide] , give its measured M6G Assay, Anhydrous basis value.
[reply] 85.18

[ask] Please supply the value of reported M6G Assay, Anhydrous basis for the item CN1CC[C@]23c4c5ccc(O)c4O[C@H]2[C@@H](O[C@@H]2O[C@H](C(=O)O)[C@@H](O)[C@H](O)[C@H]2O)C=C[C@H]3[C@H]1C5 [Morphine-6-glucuronide base, morphine-6-β-D-glucuronide]
[reply] 99.61

[ask] Input CN1CC[C@]23c4c5ccc(O)c4O[C@H]2[C@@H](O[C@@H]2O[C@H](C(=O)O)[C@@H](O)[C@H](O)[C@H]2O)C=C[C@H]3[C@H]1C5.Cl [Morphine-6-glucuronide hydrochloride] , output reported M6G Assay, Anhydrous basis.
[reply] 92.03

[ask] Supply measured M6G Assay, Anhydrous basis of CN1CCC23c4c5ccc(O)c4OC2C(OC2OC(C(=O)O)C(O)C(O)C2O)C=CC3C1C5.CN1CCC23c4c5ccc(O)c4OC2C(OC2OC(C(=O)O)C(O)C(O)C2O)C=CC3C1C5.O=C(O)C=CC(=O)O (stereo not shown) [Morphine-6-glucuronide fumarate] in your reply.
[reply] 88.23

[ask] For the compound CN1CCC23c4c5ccc(O)c4OC2C(OC2OC(C(=O)O)C(O)C(O)C2O)C=CC3C1C5.CN1CCC23c4c5ccc(O)c4OC2C(OC2OC(C(=O)O)C(O)C(O)C2O)C=CC3C1C5.O=C(O)C=CC(=O)O (stereo not shown) [Morphine-6-glucuronide maleate] , give its measured M6G Assay, Anhydrous basis value.
[reply] 86.66

[ask] Find the measured M6G Assay, Anhydrous basis of CN1CCC23c4c5ccc(O)c4OC2C(OC2OC(C(=O)O)C(O)C(O)C2O)C=CC3C1C5.CN1CCC23c4c5ccc(O)c4OC2C(OC2OC(C(=O)O)C(O)C(O)C2O)C=CC3C1C5.O=S(=O)(O)O (stereo not shown) [Morphine-6-glucuronide sulphate] and report it.
[reply] 81.82

[ask] Please list M6G Assay, Anhydrous basis recorded for the compound CN1CCC23c4c5ccc(O)c4OC2C(OC2OC(C(=O)O)C(O)C(O)C2O)C=CC3C1C5.O=P(O)(O)O (stereo not shown) [Morphine-6-glucuronide phosphate]
[reply] 91.37

----------
measurement protocol: Stability indicating HPLC assay and related substances on storage (Example 3)
Assay type: physicochemical
reported conditions: 1 month, 60° C.
Description: Assay (% w/w) and related substances determination Each test material was stored between 2-8*C prior to placing on stability. Each material was sub-divided into 900 mg aliquots, transferred to brown opaque HDPE plastic bottles and flushed with Argon prior to sealing. Sufficient samples were provided for each time point as well as spares for each storage condition. The samples were placed in appropriate incubators previously commissioned at storage conditions 25° C./60% RH, 40° C./75% RH and 60° C. […]
property name: M6G Assay, As is basis (% w/w)
Kindly provide the numeric value in % w/w only, without the unit symbol.

[ask] Quote M6G Assay, As is basis reported for CN1CCC23c4c5ccc(O)c4OC2C(OC2OC(C(=O)O)C(O)C(O)C2O)C=CC3C1C5.CN1CCC23c4c5ccc(O)c4OC2C(OC2OC(C(=O)O)C(O)C(O)C2O)C=CC3C1C5.O=C(O)C=CC(=O)O (stereo not shown) [Morphine-6-glucuronide fumarate] please.
[reply] 77.33

[ask] Note M6G Assay, As is basis for the compound shown: CN1CCC23c4c5ccc(O)c4OC2C(OC2OC(C(=O)O)C(O)C(O)C2O)C=CC3C1C5.O=P(O)(O)O (stereo not shown) [Morphine-6-glucuronide phosphate]
[reply] 80.69

[ask] Item Br.CN1CC[C@]23c4c5ccc(O)c4O[C@H]2[C@@H](O[C@@H]2O[C@H](C(=O)O)[C@@H](O)[C@H](O)[C@H]2O)C=C[C@H]3[C@H]1C5 [Morphine-6-glucuronide hydrobromide] : provide M6G Assay, As is basis
[reply] 82.82

[ask] Using the record for CN1CC[C@]23c4c5ccc(O)c4O[C@H]2[C@@H](O[C@@H]2O[C@H](C(=O)O)[C@@H](O)[C@H](O)[C@H]2O)C=C[C@H]3[C@H]1C5.Cl [Morphine-6-glucuronide hydrochloride] , state its measured M6G Assay, As is basis.
[reply] 65.73

[ask] Write down M6G Assay, As is basis measured for item CN1CC[C@]23c4c5ccc(O)c4O[C@H]2[C@@H](O[C@@H]2O[C@H](C(=O)O)[C@@H](O)[C@H](O)[C@H]2O)C=C[C@H]3[C@H]1C5 [Morphine-6-glucuronide base, morphine-6-β-D-glucuronide]
[reply] 89.31

[ask] Quote M6G Assay, As is basis reported for CN1CCC23c4c5ccc(O)c4OC2C(OC2OC(C(=O)O)C(O)C(O)C2O)C=CC3C1C5.CN1CCC23c4c5ccc(O)c4OC2C(OC2OC(C(=O)O)C(O)C(O)C2O)C=CC3C1C5.O=C(O)C=CC(=O)O (stereo not shown) [Morphine-6-glucuronide maleate] please.
[reply] 76.46

[ask] Tell me measured M6G Assay, As is basis for CN1CCC23c4c5ccc(O)c4OC2C(OC2OC(C(=O)O)C(O)C(O)C2O)C=CC3C1C5.CN1CCC23c4c5ccc(O)c4OC2C(OC2OC(C(=O)O)C(O)C(O)C2O)C=CC3C1C5.O=S(=O)(O)O (stereo not shown) [Morphine-6-glucuronide sulphate] please.
[reply] 57.15

----------
measurement protocol: Stability indicating HPLC assay and related substances on storage (Example 3)
Format: physicochemical
reported conditions: 1 month, 40° C./75% RH
For each of the molecules below, state its Known Related Substances HN33177.
Quick reminder: number only, in %, skip the unit.

[ask] Answer with the recorded Known Related Substances HN33177 for the molecule listed here: CN1CCC23c4c5ccc(O)c4OC2C(OC2OC(C(=O)O)C(O)C(O)C2O)C=CC3C1C5.CN1CCC23c4c5ccc(O)c4OC2C(OC2OC(C(=O)O)C(O)C(O)C2O)C=CC3C1C5.O=S(=O)(O)O (centres unmarked) [Morphine-6-glucuronide sulphate]
[reply] 0.50

[ask] Using the record for CN1CC[C@]23c4c5ccc(O)c4O[C@H]2[C@@H](O[C@@H]2O[C@H](C(=O)O)[C@@H](O)[C@H](O)[C@H]2O)C=C[C@H]3[C@H]1C5.Cl [Morphine-6-glucuronide hydrochloride] , state its measured Known Related Substances HN33177.
[reply] 0.41

----------
measurement protocol: Stability indicating HPLC assay and related substances on storage (Example 3)
Format: physicochemical
reported conditions: Initial
The label Y is reserved for Total Unknown strictly under 0.09%; N covers values equal to or above it.

[ask] Please check: Total Unknown for CN1CC[C@]23c4c5ccc(O)c4O[C@H]2[C@@H](O[C@@H]2O[C@H](C(=O)O)[C@@H](O)[C@H](O)[C@H]2O)C=C[C@H]3[C@H]1C5 [Morphine-6-glucuronide base, morphine-6-β-D-glucuronide] , strictly under 0.09% or not?
[reply] Y

[ask] Quick check: does Br.CN1CC[C@]23c4c5ccc(O)c4O[C@H]2[C@@H](O[C@@H]2O[C@H](C(=O)O)[C@@H](O)[C@H](O)[C@H]2O)C=C[C@H]3[C@H]1C5 [Morphine-6-glucuronide hydrobromide] have Total Unknown under 0.09%?
[reply] Y

[ask] Below 0.09% on Total Unknown? Entry CN1CCC23c4c5ccc(O)c4OC2C(OC2OC(C(=O)O)C(O)C(O)C2O)C=CC3C1C5.CN1CCC23c4c5ccc(O)c4OC2C(OC2OC(C(=O)O)C(O)C(O)C2O)C=CC3C1C5.O=C(O)C=CC(=O)O (stereo not shown) [Morphine-6-glucuronide maleate]
[reply] Y

[ask] Lab log: compare recorded Total Unknown with 0.09%; is it strictly lower for CN1CCC23c4c5ccc(O)c4OC2C(OC2OC(C(=O)O)C(O)C(O)C2O)C=CC3C1C5.CN1CCC23c4c5ccc(O)c4OC2C(OC2OC(C(=O)O)C(O)C(O)C2O)C=CC3C1C5.O=S(=O)(O)O (stereo not shown) [Morphine-6-glucuronide sulphate] ?
[reply] N

[ask] Here's an entry: CN1CC[C@]23c4c5ccc(O)c4O[C@H]2[C@@H](O[C@@H]2O[C@H](C(=O)O)[C@@H](O)[C@H](O)[C@H]2O)C=C[C@H]3[C@H]1C5.Cl [Morphine-6-glucuronide hydrochloride] . Is its Total Unknown below 0.09%?
[reply] N

[ask] Is Total Unknown strictly under 0.09% for the entry CN1CCC23c4c5ccc(O)c4OC2C(OC2OC(C(=O)O)C(O)C(O)C2O)C=CC3C1C5.O=P(O)(O)O (stereo not shown) [Morphine-6-glucuronide phosphate] ?
[reply] Y
